Catalogue of protein stability index values
B1: DYRK1B (parent)
chain: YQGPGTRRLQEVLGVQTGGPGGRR

Variants of: B1
Assay: protein stability index of a GFP-peptide fusion (GPS, HEK-293T) (PSI 1-6); higher = more stable;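 further: lentivirally expressed fusions sorted by FACS into six bins by GFP to DsRed ratio, PSI derived from sequencing read proportions per bin multiplied by bin number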
Conditions: c terminus: a fixed tail appended
API note: the answer field is a bare number with no unit suffix.

> print(dat)
           primary.sequence  observed
1  YQGPGTRHLQEVLGVQTGGPGGRR      4.21

Inquiry: Please report the measured protein stability index for YQGAGTRRLQEVLGVQTGGPGGRR
Reply text: 3.01

Inquiry: Please report the measured protein stability index for YQGPGTRRLQEVLGVQTGRPGGRR
Reply text: 2.47

Inquiry: Please report the measured protein stability index for YQGPGTRRLQEVLGVQTGFPGGRR
Reply text: 3.33

Inquiry: Please report the measured protein stability index for YQGPGTRRLQEVLSVQTGGPGGRR
Reply text: 3.14

Inquiry: Please report the measured protein stability index for YQGPGTRRLQEVLGVQTGGQGGRR
Reply text: 3.16
